B1: OR4K15 (parent)
chain: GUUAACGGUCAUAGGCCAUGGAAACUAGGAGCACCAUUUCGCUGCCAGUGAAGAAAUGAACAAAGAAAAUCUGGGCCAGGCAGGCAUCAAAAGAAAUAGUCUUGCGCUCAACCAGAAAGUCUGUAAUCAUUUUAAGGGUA

Variants of: B1
procedureSummary: self-cleavage, relative activity (ratio to wild type); higher = more cleavage; in vitro, sequencing; the parent is a self-cleaving ribozyme
Param threshold (0.1) applies to self-cleavage; output condition met when value >= threshold, condition not met when value < threshold.

G48A U108A	condition not met
U38C C112U	condition not met
G74A U122A	condition met
A5G U127A	condition met
U108A A140G	condition not met
U19C U102G	condition met

**Query** Is it the case that A30G G79A has self-cleavage reaching or exceeding 0.1?
**Result** condition met

**Query** Is it the case that U103C G104U has self-cleavage reaching or exceeding 0.1?
**Result** condition not met

**Query** Is it the case that A51G A56G has self-cleavage reaching or exceeding 0.1?
**Result** condition met

**Query** Is it the case that A5G A118C has self-cleavage reaching or exceeding 0.1?
**Result** condition met

**Query** Is it the case that C45U A114U has self-cleavage reaching or exceeding 0.1?
**Result** condition met

**Query** Is it the case that A94G A111U has self-cleavage reaching or exceeding 0.1?
**Result** condition not met

**Query** Is it the case that A24C A96G has self-cleavage reaching or exceeding 0.1?
**Result** condition met

**Query** Is it the case that A111G G138U has self-cleavage reaching or exceeding 0.1?
**Result** condition not met

**Query** Is it the case that A95G U100C has self-cleavage reaching or exceeding 0.1?
**Result** condition met

**Query** Is it the case that C81A U103C has self-cleavage reaching or exceeding 0.1?
**Result** condition met

**Query** Is it the case that U120A U132C has self-cleavage reaching or exceeding 0.1?
**Result** condition met

**Query** Is it the case that A62G A110C has self-cleavage reaching or exceeding 0.1?
**Result** condition met

**Query** Is it the case that G73A G136U has self-cleavage reaching or exceeding 0.1?
**Result** condition met

**Query** Is it the case that A129G A135G has self-cleavage reaching or exceeding 0.1?
**Result** condition met

**Query** Is it the case that A66G U132C has self-cleavage reaching or exceeding 0.1?
**Result** condition met
